Reference for the values: PubChem BioAssay (NCI)

- System: SW-620 colon
- experiment.summary: NCI tumour cell line growth inhibition, 48 h
value.type: TGI

Reference set, count: 6
| molecule | target.under.test | TGI |
| --- | --- | --- |
| O=C1NC(=S)NC(=O)C1=Cc1ccc2ccccc2n1 | SW-620 colon | > 100 µM |
| CCCCc1nc2cc(/C=C/C(=O)NO)ccc2n1CCN(CC)CC | SW-620 colon | 3.32 µM |
| COC(=O)[C@H](Cc1ccccc1)NC(=O)[C@@H](OC)[C@@H]1Cc2cc3cc(OC4CC(OC5CC(O)C(O)C(C)O5)C(O)C(C)O4)c(C)c(O)c3c(O)c2C(=O)[C@H]1OC1CC(OC2CC(OC3CC(C)(O)C(O)C(C)O3)C(O)C(C)O2)C(O)C(C)O1 (stereo partly specified) | SW-620 colon | > 14.3 µM |
| Cc1ccc([Se][Se]c2ccc(C)cc2)cc1 | SW-620 colon | 51.6 µM |
| C=C1[C@H](OCC(C)C)[C@@H](OC(=O)C(C)CC)[C@@H](O)C(C)(C)/C=C/[C@H](C)C(=O)[C@@]2(O)C[C@H](C)[C@H](O)[C@@H]2[C@H]1OC(=O)C(C)CC (stereo partly specified) | SW-620 colon | > 20 µM |
| Cc1ccc(Nc2nc(NS(=O)(=O)c3cc(C)c(Cl)cc3S)n[nH]2)cc1 | SW-620 colon | > 100 µM |

Now look at this entry.
Lab note: `Oc1ccc(-c2nc3ccc4[nH]ncc4c3c3c2CCCC3)c2cccnc12` gave TGI of 11.1 µM

----------
- Tested on: HCT-116 colon
- experiment.summary: NCI tumour cell line growth inhibition, 48 h
# key: entry, value: TGI

Reference set, count: 4
| compound | value.reported |
| --- | --- |
| C1C[OH+]CC[OH+]CC[OH+]CC[OH+]CC[OH+]CC[OH+]1.[Cl-].[Ta+5] | > 100 µM |
| c1cn[nH]c1 | > 10 µM |
| CC12CCC(O)CC1CCC1C2CCC2(C)C(C3=CC(=O)OC3)CCC12 (stereo not drawn) | > 100 µM |
| CCN1CCCCC(=N\O)/C(=N/O)CCCC1 | > 100 µM |

Lab note: O=C(NC(CO)CO)c1ccc2cc(C(=O)N3CC(CCl)c4ccc([N+](=O)[O-])cc43)[nH]c2c1 (stereo not drawn) gave TGI of > 100 µM

Lab note: `Clc1ccc(-c2nn3c(C45CC6CC(CC(C6)C4)C5)nnc3s2)cc1` gave TGI of > 100 µM

Lab note: CCCN1C(=O)/C(=C(/O)C(=O)OCC)C(c2ccc(OC)c(OC)c2)C1=O (stereo not drawn) gave TGI of > 100 µM

Lab note: `CCc1cc2c(oc3c4ccccc4ccc23)c(=O)[nH]1` gave TGI of > 10 µM

Lab note: `COc1ccc(S(=O)(=O)N/N=C(\C)CN2C(=O)c3ccccc3C2=O)cc1` gave TGI of > 100 µM

Lab note: `CN(Cc1ccccc1)C1(N(C)Cc2ccccc2)CC1` gave TGI of > 100 µM

Lab note: `O=c1c2cccnc2ncn1CCCN1CCOCC1` gave TGI of > 100 µM

Lab note: CC(C)(C)c1ccc(O)c(C(O)c2cccnc2)c1 (stereo not drawn) gave TGI of > 100 µM

Lab note: COC(=O)C(=O)C(C#N)c1ccc(Cl)c(Cl)c1 (stereo not drawn) gave TGI of > 100 µM
